# measurementTarget: T1, human RXFP1 (human, UniProt Q9HBX9 1-757)
# T1 sequence (looked up): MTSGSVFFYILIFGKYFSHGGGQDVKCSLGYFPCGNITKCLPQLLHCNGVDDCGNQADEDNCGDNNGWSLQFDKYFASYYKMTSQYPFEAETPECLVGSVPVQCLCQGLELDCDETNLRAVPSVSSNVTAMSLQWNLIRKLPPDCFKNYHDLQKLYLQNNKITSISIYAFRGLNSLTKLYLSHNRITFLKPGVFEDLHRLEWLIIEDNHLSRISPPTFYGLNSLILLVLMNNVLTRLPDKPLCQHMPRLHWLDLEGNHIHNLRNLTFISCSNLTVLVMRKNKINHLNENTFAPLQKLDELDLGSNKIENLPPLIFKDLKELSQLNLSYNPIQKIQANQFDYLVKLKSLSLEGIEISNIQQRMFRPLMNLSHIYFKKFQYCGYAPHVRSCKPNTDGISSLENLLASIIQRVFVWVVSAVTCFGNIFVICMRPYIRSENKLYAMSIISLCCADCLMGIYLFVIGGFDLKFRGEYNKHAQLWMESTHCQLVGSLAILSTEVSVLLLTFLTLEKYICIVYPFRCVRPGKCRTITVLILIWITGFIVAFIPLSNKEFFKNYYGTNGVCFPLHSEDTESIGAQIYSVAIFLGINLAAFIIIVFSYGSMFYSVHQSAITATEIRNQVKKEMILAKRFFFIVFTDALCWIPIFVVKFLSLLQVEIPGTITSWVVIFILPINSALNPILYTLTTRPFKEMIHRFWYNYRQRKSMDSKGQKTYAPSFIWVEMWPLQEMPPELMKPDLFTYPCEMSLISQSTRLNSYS
# procedureDetails: cell-based or functional assay
Consider the following binders and their measured THP1 (endogenous RXFP1) cAMP EC50 readings.
Give the figure together with its unit, number first.

# binder, THP1 (endogenous RXFP1) cAMP EC50
measured = [
    ("SEQ ID NO: 90 (Fc fusion) DKTHTCPPCPAPEAAGGPSVFLFPPKPKDTLMISRTPEVTCVVVDVSHEDPEVKFNWYVDGVEVHNAKTKPREEQYNSTYRVVSVLTVLHQDWLNGKEYKCKVSNKALAAPIEKTISKAKGQPREPQVYTLPPSRDELTKNQVSLTCLVKGFYPSDIAVEWESNGQPENNYKTTPPVLDSDGSFFLYSKLTVDKSRWQQGNVFSCSVLHEALHSHYTQKSLSLSPGKGGSDSWQEEVIKLCGRELVRAQIAICGKSTASDAAGAQAQAGARQLYSALANKCCHVGCTKRSLAQFC", "4.4 nM"),
]

Exam item: Quick check: THP1 (endogenous RXFP1) cAMP EC50 of SEQ ID NO: 111 (Fc fusion) DKTHTCPPCPAPEAAGGPSVFLFPPKPKDTLMISRTPEVTCVVVDVSHEDPEVKFNWYVDGVEVHNAKTKPREEQYNSTYRVVSVLTVLHQDWLNGKEYKCKVSNKALAAPIEKTISKAKGQPREPQVYTLPPSRDELTKNQVSLTCLVKGFYPSDIAVEWESNGQPENNYKTTPPVLDSDGSFFLYSKLTVDKSRWQQGNVFSCSVLHEALHSHYTQKSLSLSPGEGGSDSWQEEVIKLCGRELVRAQIAICGKSTASDAAGAQAQAGARQLYSALANKCCHVGCTKQSLAQFC ?
Marked response: 80 nM
